The reader will find IC50 measurements below, all made with UniProt:P09616.
Sequence (P09616 27-319 limits assumed): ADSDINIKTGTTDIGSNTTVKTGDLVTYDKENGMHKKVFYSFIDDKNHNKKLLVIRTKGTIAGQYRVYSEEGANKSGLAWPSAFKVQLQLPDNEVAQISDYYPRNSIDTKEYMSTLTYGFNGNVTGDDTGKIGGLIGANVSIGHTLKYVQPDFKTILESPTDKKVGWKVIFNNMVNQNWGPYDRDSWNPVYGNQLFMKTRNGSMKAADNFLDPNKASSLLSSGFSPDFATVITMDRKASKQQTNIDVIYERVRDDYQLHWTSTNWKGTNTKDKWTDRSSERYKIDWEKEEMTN

COMPOUND_SMILES | IC50
Cc1cc2[nH]c(=O)c(=O)[nH]c2cc1S(=O)(=O)Nc1ccc(-c2ccccc2)cc1 | < 0.03 µM
Cc1cccc(-c2ccc(NS(=O)(=O)c3cc4[nH]c(=O)c(=O)[nH]c4cc3C)cc2)c1 | 0.1 to 1 µM
Cc1cc2[nH]c(=O)c(=O)[nH]c2cc1S(=O)(=O)Nc1ccc(-c2cccc(Cl)c2)c(Cl)c1 | < 0.03 µM
COc1ccccc1-c1ccc(NS(=O)(=O)c2cc3[nH]c(=O)c(=O)[nH]c3cc2C)cc1Cl | 0.1 to 1 µM
